- tested target: JAK2 (Homo sapiens, UniProt O60674, V617F)
- Construct: their effect on JAK2 protein degradation in SET2 cells; host or cells: SET2 cells (human essential thrombocythemia)
- Sequence (O60674 whole entry V617F): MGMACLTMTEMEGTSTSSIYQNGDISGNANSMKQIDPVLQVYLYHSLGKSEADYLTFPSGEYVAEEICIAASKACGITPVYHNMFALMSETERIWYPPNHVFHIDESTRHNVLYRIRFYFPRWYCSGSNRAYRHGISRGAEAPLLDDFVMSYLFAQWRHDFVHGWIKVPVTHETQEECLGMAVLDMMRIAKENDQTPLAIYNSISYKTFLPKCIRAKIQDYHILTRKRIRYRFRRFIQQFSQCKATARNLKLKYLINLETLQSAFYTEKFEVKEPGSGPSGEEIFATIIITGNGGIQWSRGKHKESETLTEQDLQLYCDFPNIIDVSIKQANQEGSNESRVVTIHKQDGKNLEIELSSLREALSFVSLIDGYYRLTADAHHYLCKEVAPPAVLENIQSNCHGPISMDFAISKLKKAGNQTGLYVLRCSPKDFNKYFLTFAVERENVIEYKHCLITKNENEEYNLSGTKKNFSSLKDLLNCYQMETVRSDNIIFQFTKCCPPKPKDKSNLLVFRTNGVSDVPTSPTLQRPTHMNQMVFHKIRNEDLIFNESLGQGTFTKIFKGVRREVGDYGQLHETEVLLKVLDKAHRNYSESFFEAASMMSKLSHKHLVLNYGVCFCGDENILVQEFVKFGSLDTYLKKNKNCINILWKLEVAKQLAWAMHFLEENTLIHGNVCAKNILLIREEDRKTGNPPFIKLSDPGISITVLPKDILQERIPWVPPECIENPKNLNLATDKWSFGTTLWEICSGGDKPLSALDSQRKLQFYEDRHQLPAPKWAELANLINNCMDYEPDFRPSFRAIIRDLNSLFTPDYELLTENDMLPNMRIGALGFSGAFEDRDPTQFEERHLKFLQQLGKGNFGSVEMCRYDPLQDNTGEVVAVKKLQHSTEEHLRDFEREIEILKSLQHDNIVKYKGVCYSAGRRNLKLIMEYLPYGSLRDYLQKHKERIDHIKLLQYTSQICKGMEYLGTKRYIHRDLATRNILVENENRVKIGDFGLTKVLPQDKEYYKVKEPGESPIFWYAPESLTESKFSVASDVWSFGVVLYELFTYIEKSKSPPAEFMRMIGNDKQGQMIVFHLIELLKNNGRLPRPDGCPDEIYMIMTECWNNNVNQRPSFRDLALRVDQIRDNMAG
- test details: Western blot quantitation of JAK2 degradation in SET2 cells
- Format: cell-based
- experimental setup: 10 μM compound, 8 hours treatment, western blot densitometry vs. DMSO vehicle
measured metric: JAK2 % Degradation in SET2

>  <molecule>
COC(=O)N[C@@H]1CC[C@@H](n2c(=O)n(C)c3cnc4[nH]c(-c5ccc(C(=O)N6CCC(C(=O)Nc7ccc8c(c7)CN(C7CCC(=O)NC7=O)C8=O)CC6)c(F)c5)c(-c5ccc6c(cnn6C(C)C)c5)c4c32)C1 (stereo partly drawn)

>  <measured metric>
JAK2 % Degradation in SET2

>  <observed measurement>
E (E<10%)

$$$$
>  <molecule>
COC(=O)N[C@@H]1CC[C@@H](n2c(=O)n(C)c3cnc4[nH]c(-c5ccc(C(=O)NCCOCC(=O)Nc6ccc7c(c6)CN(C6CCC(=O)NC6=O)C7=O)c(F)c5)c(-c5ccc6c(cnn6C(C)C)c5)c4c32)C1 (stereo partly drawn)

>  <measured metric>
JAK2 % Degradation in SET2

>  <observed measurement>
E (E<10%)

$$$$
